- measuredTarget: SSTR4 (Homo sapiens, UniProt P31391)
- Construct: host or cells: CHO-K1
- Sequence (P31391 whole entry): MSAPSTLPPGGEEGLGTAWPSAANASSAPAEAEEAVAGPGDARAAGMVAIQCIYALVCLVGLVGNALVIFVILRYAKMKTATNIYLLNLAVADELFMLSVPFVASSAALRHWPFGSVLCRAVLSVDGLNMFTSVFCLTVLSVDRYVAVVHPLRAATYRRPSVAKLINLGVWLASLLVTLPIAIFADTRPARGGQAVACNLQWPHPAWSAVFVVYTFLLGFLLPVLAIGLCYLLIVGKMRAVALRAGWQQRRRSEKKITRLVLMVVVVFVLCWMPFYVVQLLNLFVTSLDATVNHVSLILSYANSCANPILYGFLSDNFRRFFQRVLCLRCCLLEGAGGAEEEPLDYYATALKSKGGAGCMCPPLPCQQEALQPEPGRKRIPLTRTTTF
- procedureText: SSTR4 I-125 somatostatin competition binding assay (CHO-K1 membranes)
- condition: competition with I-125 somatostatin, membranes from CHO-K1 overexpressing SSTR4; read-out: SSTR4 Binding pIC50 (converted)
Label 1 when IC50 < 400 nM; otherwise 0.

Please review the entries below; each comes with its answer.
>>> categorylabel("CN1CCC[C@H]1CC(=O)NC(C)(C)c1ccccc1F [Example 160]")
0
>>> categorylabel("CC[C@@H](CN1CCC1)C(=O)N[C@H](c1ccccc1OC)C(F)F [Example 189]")
1
>>> categorylabel("COc1ccccc1[C@@H](NC(=O)[C@H](CN1CCC1)C(C)C)C(F)F [Example 188]")
1

A record lists CC[C@@H](CN1CCC1)C(=O)NC(C)(C)c1ccccc1F (single isomer, unassigned) [Example 200] . Is its IC50 below 400 nM?
1

----------
- measuredTarget: SSTR4 (Homo sapiens)
- Construct: host or cells: CHO-K1
- procedureText: Inhibition of forskolin stimulated cAMP in CHO-K1 cells overexpressing SSTR4
- Format: cell-based
- condition: read-out: SSTR4 Activity pEC50 (converted)
quantityMeasured: log10 of EC50 (log10 of the value in nM)
Friendly reminder: values = log10 of EC50, unit nM.

Given the entry Cc1cccc2c(C(C)(C)NC(=O)C[C@H]3CCCN3C)nccc12 [Example 17] , report its measured log10 of EC50.
0.60

Given the entry CN1CCC[C@H]1CC(=O)NC(C)(C)COc1ccccn1 [Example 123] , report its measured log10 of EC50.
2.20

Given the entry CN1CCC[C@H]1CC(=O)NC(C)(C)c1cccc(Cl)c1F [Example 83] , report its measured log10 of EC50.
2.40

Given the entry CN1CCC[C@H]1CC(=O)NC(C)(C)c1ccc(Cl)cc1 [Example 35] , report its measured log10 of EC50.
1.80

Given the entry C[C@@H](CN1CCC1)C(=O)N[C@@H](CF)c1ccccc1 (single isomer, unassigned) [Example 206] , report its measured log10 of EC50.
2.30

Given the entry Cc1cccc2c(C(C)(C)NC(=O)C[C@H]3CCCN3C)noc12 [Example 19] , report its measured log10 of EC50.
1.10

----------
Some molecules, each annotated with its measured IC50.
- measuredTarget: SSTR4 (Homo sapiens, UniProt P31391)
- Construct: host or cells: CHO-K1
- procedureText: SSTR4 I-125 somatostatin competition binding assay (CHO-K1 membranes)
- condition: competition with I-125 somatostatin, membranes from CHO-K1 overexpressing SSTR4; read-out: SSTR4 Binding pIC50 (converted)
State the answer as a number, implicitly in µM.

Known results for molecules:
>>> experimentalvalue("CN1CCCCC1CC(=O)NC(C)(C)c1cccc(Cl)c1 (stereo not drawn)")
0.2
>>> experimentalvalue("CC(C)(NC(=O)CC1NCCC1(F)F)c1nccc2ccccc12 (stereo not drawn)")
1
>>> experimentalvalue("CN1CCC[C@H]1CC(=O)NC(C)(C)COc1ncccc1C(F)(F)F")
0.316

Please examine the following record next.
Given the entry `CN1CCC[C@H]1CC(=O)NC(C)(C)c1cccc(Cl)c1Cl` , report its measured IC50.
0.316

----------
- measuredTarget: SSTR4 (Homo sapiens, UniProt P31391)
- Construct: host or cells: CHO-K1
- procedureText: SSTR4 I-125 somatostatin competition binding assay (CHO-K1 membranes)
- condition: competition with I-125 somatostatin, membranes from CHO-K1 overexpressing SSTR4; read-out: SSTR4 Binding pIC50 (converted)
quantityMeasured: IC50 (µM)
State the answer as a number, implicitly in µM.

>>> experimentalvalue("C[C@@H](C(=O)NC(C)(C)c1nccc2ccccc12)[C@H]1CCCN1C (racemic) [Example 111]")
0.0251
>>> experimentalvalue("CN1CCC[C@H]1CC(=O)NC(C)(C)[C@@H]1CCc2ccccc2O1 (single isomer, unassigned) [Example 128]")
0.316
>>> experimentalvalue("CN1CCC[C@@H]1CC(=O)NC(C)(C)c1nccc2ccccc12 [Example 16]")
0.1
>>> experimentalvalue("O=C(CCN1CCC1)NC(c1cccc(F)c1)C(F)(F)F (single isomer, unassigned) [Example 193]")
0.2
>>> experimentalvalue("CC(C)[C@@H](CN1CCC1)C(=O)N[C@H](c1ccccc1)C(F)F [Example 179]")
0.002

Given the entry CC(CN1CCCC1)C(=O)NC(C)(C)c1ccccc1Cl (centres unmarked) [Example 135] , report its measured IC50.
0.158

Given the entry CC(C)[C@@H](CN1CCC1)C(=O)N[C@H](c1ccc(F)cc1)C(F)F [Example 196] , report its measured IC50.
0.00316

Given the entry Cc1cccc(OCC(C)(C)NC(=O)C[C@@H]2CCCN2C)n1 [Example 104] , report its measured IC50.
2
